# method description: in vitro
# Type: in vitro ADME
# stated conditions: human, jejunal mucous homogenate
Field: metabolised at 24 h. Provide a value for each of the compounds that follow.
Answers are plain numbers, in %.

Before answering, review these 2 worked examples.
compound	u	metabolised at 24 h
OC[C@H]1O[C@@](CO)(O[C@H]2O[C@H](CO)[C@@H](O)[C@H](O)[C@H]2O)[C@@H](O)[C@@H]1O [Saccharose, saccharose, reference compound]	%	88
OC[C@H]1O[C@@](CO)(O[C@H]2O[C@H](CO)[C@@H](O[C@@H]3O[C@H](CO)[C@@H](O)[C@H](O)[C@H]3O)[C@H](O)[C@H]2O)[C@@H](O)[C@@H]1O [Cellobiofructose, cellobiofructose]	%	0

Let us move to another entry and its metabolised at 24 h.
Task: # lookup: metabolised at 24 h of OC[C@H]1O[C@@](CO)(O[C@H]2O[C@H](CO[C@@H]3O[C@H](CO)[C@@H](O)[C@H](O)[C@H]3O)[C@@H](O)[C@H](O)[C@H]2O)[C@@H](O)[C@@H]1O [Gentiobiofructose, gentiobiofructose]
Result: 0
